Data origin, for the record: patent US20240352445A1

biological target: SARS-CoV-2 spike protein trimer, wild type (SARS-CoV-2, UniProt P0DTC2 16-1213); assay: ELISA, purified IgG

{"binder": "SEQ ID NO 18 (antibody, V domains shown, As m4; also called selected clone from LxC libraries; LxC clone) VH: EVQLVESGGGLVQPGGSLRLSCTVSGFSLSTYAMSWVRQAPGKGLEWIGVIASNADTYYASWAKGRFTISRDNSKNTLYLQMNSLRAEDTAVYYCARHPGSAGYGYAVYYAMDPWGQGTLVTVSS VL: DIQMTQSPSSLSASVGDRVTITCKASEDIRYGLNWYQQKPGKAPKLLIYGGSYLRWGVPSRFSGSGSGTDYTLTISSLQPEDFATYYCQQGYRVPIRFGGGTKVEIK", "binding result": "binds"}
{"binder": "SEQ ID NO 16 (antibody, V domains shown, As m4) VH: EVQLVESGGGLVQPGGSLRLSCTVSGFSLSTYAMSWVRQAPGKGLEWIGVIASNADTYYASWAKGRFTISRDNSKNTLYLQMNSLRAEDTAVYYCARHPGSAGYGYAVYYAMDPWGQGTLVTVSS VL: DIQMTQSPSSLSASVGDRVTITCQASQDVKYAINWYQQKPGKAPKLLIYGTSSRGEGVPSRFSGSGSGTDYTLTISSLQPEDFATYYCQQGYVVSIFFGGGTKVEIK", "binding result": "binds"}
